Collected IC50 values appear next to each entry.
- Test system: metastatic colorectal adenocarcinoma (SW620)
- Assay Comment: In vitro antiproliferative activity, SW620
- Assay type: cell-based, human
- Run Parameters: SW620 cells
Property Measured: IC50 (µM)

In [3]: df
Out[3]:
                                    compound  property_measured  value_comparator  reported_result
 0  [Fe+2].c1cc[c-](-c2cn(CCn3cnc4c(N5CCCCC5)ncnc43)nn2)c1.c1cc[cH-]c1 [Compound 35c]               IC50                 >              100
 1  CC([c-]1cccc1)n1cc(Cn2cnc3ccccc32)nn1.[Fe+2].c1cc[cH-]c1 (stereo not shown) [Compound 23b]               IC50                 >              100
 2  Nc1nc(Cl)c2c(ncn2Cc2cn(C[c-]3cccc3)nn2)n1.[Fe+2].c1cc[cH-]c1 [Compound 16a]               IC50                 >              100
 3  CC([c-]1cccc1)n1cc(Cn2cnc3ncnc(Cl)c32)nn1.[Fe+2].c1cc[cH-]c1 (stereo not shown) [Compound 15b]               IC50                 =             15.5
 4  Clc1ncnc2c1ccn2Cc1cn(-[c-]2cccc2)nn1.[Fe+2].c1cc[cH-]c1 [Compound 11c]               IC50                 =             9.07
 5  Nc1ncnc2c1ncn2Cc1cn(-[c-]2cccc2)nn1.[Fe+2].c1cc[cH-]c1 [Compound 12c]               IC50                 >              100
 6  Clc1ncnc2c1ccn2CCn1cc(-[c-]2cccc2)nn1.[Fe+2].c1cc[cH-]c1 [Compound 34a]               IC50                 >              100
 7  Nc1nc(Cl)c2ncn(Cc3cn(-[c-]4cccc4)nn3)c2n1.[Fe+2].c1cc[cH-]c1 [Compound 14c]               IC50                 =             81.3
 8  [Fe+2].c1cc[cH-]c1.c1ccc2c(c1)ccn2Cc1cn(-[c-]2cccc2)nn1 [Compound 24c]               IC50                 >              100
 9  Nc1ncnc2c1ncn2Cc1cn(C[c-]2cccc2)nn1.[Fe+2].c1cc[cH-]c1 [Compound 12a]               IC50                 >              100
10  CC([c-]1cccc1)n1cc(Cn2cnc3c(N)ncnc32)nn1.[Fe+2].c1cc[cH-]c1 (stereo not shown) [Compound 12b]               IC50                 =               75
11  Clc1ncnc2c1ccn2Cc1cn(C[c-]2cccc2)nn1.[Fe+2].c1cc[cH-]c1 [Compound 11a]               IC50                 =             31.6
12  Clc1ncnc2c1ncn2Cc1cn(C[c-]2cccc2)nn1.[Fe+2].c1cc[cH-]c1 [Compound 13a]               IC50                 =             14.4
13  Ic1ccc2c(ccn2Cc2cn(-[c-]3cccc3)nn2)c1.[Fe+2].c1cc[cH-]c1 [Compound 25c]               IC50                 >              100
14  [Fe+2].c1cc[c-](-c2cn(CCn3ccc4c(N5CCCC5)ncnc43)nn2)c1.c1cc[cH-]c1 [Compound 34b]               IC50                 >              100
15  CC([c-]1cccc1)n1cc(Cn2cnc3c(Cl)ncnc32)nn1.[Fe+2].c1cc[cH-]c1 (stereo not shown) [Compound 13b]               IC50                 =             36.6
